# Target Desc: T1, Rhesus SLC34A2 (Rhesus, UniProt F7HDA3 1-690)
# T1 construct: whole, on cells
# T1 sequence: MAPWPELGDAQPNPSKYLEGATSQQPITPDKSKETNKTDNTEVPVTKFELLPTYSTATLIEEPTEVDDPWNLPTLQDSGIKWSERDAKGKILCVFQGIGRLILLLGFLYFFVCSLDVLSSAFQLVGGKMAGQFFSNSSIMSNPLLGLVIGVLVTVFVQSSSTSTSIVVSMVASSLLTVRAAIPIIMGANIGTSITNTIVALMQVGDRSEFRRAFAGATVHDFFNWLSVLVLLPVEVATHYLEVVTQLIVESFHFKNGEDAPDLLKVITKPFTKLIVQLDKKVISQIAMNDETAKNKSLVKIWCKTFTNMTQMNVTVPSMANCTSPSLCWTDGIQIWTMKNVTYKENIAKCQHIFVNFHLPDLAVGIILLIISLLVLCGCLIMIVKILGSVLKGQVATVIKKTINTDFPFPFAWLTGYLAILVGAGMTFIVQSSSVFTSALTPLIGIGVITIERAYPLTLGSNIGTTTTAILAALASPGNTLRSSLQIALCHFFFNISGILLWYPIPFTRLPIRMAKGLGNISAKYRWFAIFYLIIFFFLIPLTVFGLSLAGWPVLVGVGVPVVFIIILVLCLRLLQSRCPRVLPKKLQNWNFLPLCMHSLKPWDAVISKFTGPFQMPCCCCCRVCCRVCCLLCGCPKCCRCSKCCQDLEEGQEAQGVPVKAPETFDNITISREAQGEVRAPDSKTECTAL
# Assay Notes: FACS, HEK293/Rhesus SLC34A2 cells
Parameter Measured: pEC50
Note: pEC50 values are expressed as the negative base-10 logarithm of concentration in M.

| Binder | Value Observed |
| --- | --- |
| xi62G10E4G8 hIgG1 (antibody, V domains shown, chimeric, hIgG1) VH: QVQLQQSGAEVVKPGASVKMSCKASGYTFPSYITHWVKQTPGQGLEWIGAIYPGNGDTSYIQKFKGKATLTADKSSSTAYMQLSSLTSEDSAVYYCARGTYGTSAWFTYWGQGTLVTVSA VL: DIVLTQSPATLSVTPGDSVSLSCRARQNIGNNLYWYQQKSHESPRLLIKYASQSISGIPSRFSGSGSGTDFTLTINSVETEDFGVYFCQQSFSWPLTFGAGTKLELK | 8.43 |

Next item in the queue.
The recorded pEC50 for xi63A11D5B4 hIgG1 (antibody, V domains shown, chimeric, hIgG1) VH: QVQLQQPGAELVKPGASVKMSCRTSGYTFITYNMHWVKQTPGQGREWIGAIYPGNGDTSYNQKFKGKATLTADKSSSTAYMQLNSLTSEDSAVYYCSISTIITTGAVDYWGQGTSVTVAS VL: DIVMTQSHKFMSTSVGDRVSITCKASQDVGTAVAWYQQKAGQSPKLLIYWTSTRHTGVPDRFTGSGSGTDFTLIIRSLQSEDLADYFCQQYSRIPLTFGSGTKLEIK is 8.34
